Data provenance is patent US20030229005A1.

Recorded Selectivity v. Coll-3 for the following binders
molecular target: gelatinase B (UniProt P14780 107-707, limits assumed); test: cell-based or functional assay
Sequence (P14780 107-707 limits assumed): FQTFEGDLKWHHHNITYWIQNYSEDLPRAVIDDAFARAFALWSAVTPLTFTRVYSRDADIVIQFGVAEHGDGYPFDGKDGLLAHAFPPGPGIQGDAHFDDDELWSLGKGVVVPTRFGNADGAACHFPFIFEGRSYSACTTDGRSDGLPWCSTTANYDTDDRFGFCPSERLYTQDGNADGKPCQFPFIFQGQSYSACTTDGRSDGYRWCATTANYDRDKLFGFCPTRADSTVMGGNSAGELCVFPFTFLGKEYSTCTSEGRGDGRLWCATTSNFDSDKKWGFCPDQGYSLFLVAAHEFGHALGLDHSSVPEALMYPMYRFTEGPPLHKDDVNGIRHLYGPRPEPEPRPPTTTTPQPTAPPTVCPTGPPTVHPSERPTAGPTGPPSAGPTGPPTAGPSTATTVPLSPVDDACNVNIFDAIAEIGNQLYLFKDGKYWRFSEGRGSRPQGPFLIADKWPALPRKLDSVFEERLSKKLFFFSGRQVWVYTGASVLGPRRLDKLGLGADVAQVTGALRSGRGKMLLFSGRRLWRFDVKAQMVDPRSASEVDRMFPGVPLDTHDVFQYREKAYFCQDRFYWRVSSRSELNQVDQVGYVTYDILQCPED
*1 amine or outer side, *2 acyl side, *3 side chain or, on linkers, in order; H or OH if unused. [ ]: non-standard residue; d: D form. The star is where a group is joined. Dnp = O=[N+]([O-])c1ccc(*)c([N+](=O)[O-])c1; C(Me) = CSC[C@H](N[*:1])C(=O)[*:2]
Unit unitless implied. Number only.

Sample records with Selectivity v. Coll-3:
{"binder": "Dnp-GPLSFQG-NH2 (SMILES CC(C)C[C@H](NC(=O)[C@@H]1CCCN1C(=O)CNc1ccc([N+](=O)[O-])cc1[N+](=O)[O-])C(=O)N[C@@H](CO)C(=O)N[C@@H](Cc1ccccc1)C(=O)N[C@@H](CCC(N)=O)C(=O)NCC(N)=O) [Dnp-GPLSFQG-NH2]", "Selectivity v. Coll-3, unitless": 5}
{"binder": "Dnp-GPLSISG-NH2 (SMILES CC[C@H](C)[C@H](NC(=O)[C@H](CO)NC(=O)[C@H](CC(C)C)NC(=O)[C@@H]1CCCN1C(=O)CNc1ccc([N+](=O)[O-])cc1[N+](=O)[O-])C(=O)N[C@@H](CO)C(=O)NCC(N)=O) [Dnp-GPLSISG-NH2]", "Selectivity v. Coll-3, unitless": 1}
{"binder": "Dnp-PLGMRG-NH2 (SMILES CSCC[C@H](NC(=O)CNC(=O)[C@H](CC(C)C)NC(=O)[C@@H]1CCCN1c1ccc([N+](=O)[O-])cc1[N+](=O)[O-])C(=O)N[C@@H](CCCNC(=N)N)C(=O)NCC(N)=O) [Dnp-PLGMRG-NH2]", "Selectivity v. Coll-3, unitless": 1}
{"binder": "Dnp-GPLGLHV[C(Me)]-NH2 (SMILES CSC[C@H](NC(=O)[C@@H](NC(=O)[C@H](Cc1c[nH]cn1)NC(=O)[C@H](CC(C)C)NC(=O)CNC(=O)[C@H](CC(C)C)NC(=O)[C@@H]1CCCN1C(=O)CNc1ccc([N+](=O)[O-])cc1[N+](=O)[O-])C(C)C)C(N)=O) [Dnp-GPLGLHVC(Me)-NH2]", "Selectivity v. Coll-3, unitless": 26}
{"binder": "Dnp-GPHPFRG-NH2 (SMILES N=C(N)NCCC[C@H](NC(=O)[C@H](Cc1ccccc1)NC(=O)[C@@H]1CCCN1C(=O)[C@H](Cc1c[nH]cn1)NC(=O)[C@@H]1CCCN1C(=O)CNc1ccc([N+](=O)[O-])cc1[N+](=O)[O-])C(=O)NCC(N)=O) [Dnp-GPHPFRG-NH2]", "Selectivity v. Coll-3, unitless": 8}

Let us move to another entry and its Selectivity v. Coll-3.
# input Using the record for Dnp-GPKGMRG-NH2 (SMILES CSCC[C@H](NC(=O)CNC(=O)[C@H](CCCCN)NC(=O)[C@@H]1CCCN1C(=O)CNc1ccc([N+](=O)[O-])cc1[N+](=O)[O-])C(=O)N[C@@H](CCCNC(=N)N)C(=O)NCC(N)=O) [Dnp-GPKGMRG-NH2] , report its Selectivity v. Coll-3.
# output 3
